Experiment: NCI Yeast Anticancer Drug Screen. Data for the cln2 rad14 strain (AID 165);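 also: 0% = growth equal to vehicle treated cultures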
Conditions: S. cerevisiae cln2 rad14 strain, at 50.0 µM, stronger effect = higher value
Procedure: Growth inhibition of yeast strains with defined genetic alterations is measured as a screen for potential anti-cancer activity. Selected strains with alterations in DNA damage repair or cell cycle control were exposed to compounds and growth inhibition was measured relative to vehicle treated controls. The strain used in this assay is cln2 rad14
The panel holds about 79,000 compounds, 15% with a hit somewhere; the sample as a whole holds those more often.
observedProperty: growth inhibition (%)
// units = %; emit number, no label

Solved entries (count: 2):
compound: O=c1[nH]nc(Cc2ccc(Cl)cc2)n1/N=C\CC/C=N\n1c(Cc2ccc(Cl)cc2)n[nH]c1=O
observedProperty: growth inhibition
recordedNumber: -4.05

compound: CCOC(=O)C(NC(=O)c1ccccc1)(c1ccc(S(=O)(=O)Nc2onc(C)c2C)cc1)C(F)(F)F (stereo not drawn)
observedProperty: growth inhibition
recordedNumber: -12.1

QUERY: # query: growth inhibition of entry CCC(CCC#N)(CCC#N)C(=O)c1ccc(C)s1
RESULT: -19.8

----------
Assay: NCI Yeast Anticancer Drug Screen. Data for the sgs1 mgt1 strain (AID 161);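 also: 0% = growth of cultures given vehicle only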
Settings: S. cerevisiae sgs1 mgt1 strain, at 50.0 µM
Procedure: Growth inhibition of yeast strains with defined genetic alterations is measured as a screen for potential anti-cancer activity. Selected strains with alterations in DNA damage repair or cell cycle control were exposed to compounds and growth inhibition was measured relative to vehicle treated controls. The strain used in this assay is sgs1 mgt1
This is part of a sample that, as a whole, favours compounds with a hit. Of some 79,000 tested, about 15% had one in any assay. Activity calls are given as the source filed them. Rule as the data show it: active = growth inhibition above about 70%; inactive = the rest.
Valid outcomes are listed here; reply with one: active, inactive

Below, 8 compounds whose answers are already recorded.
compound: CC(C)(C)OC(=O)N(CCCN)CCCCN
classification: inactive
--
compound: COC(=O)[C@@H]1CON(Cc2ccccc2)C1CC1(C)OCCO1 (stereo partly specified)
classification: inactive
--
compound: O=C(c1ccco1)C(O)c1ccccc1 (stereo unspecified)
classification: inactive
--
compound: Brc1cccc[n+]1CCC[n+]1ccccc1Br
classification: inactive
--
compound: Nc1nc(N)c2c(n1)Nc1ccc(Cl)nc1S2
classification: active
--
compound: O=C(CC(=O)c1ccc(-c2ccc(C(=O)CC(=O)c3ccccc3)cc2)cc1)c1ccccc1
classification: inactive
--
compound: C1CCC(C2CCCC[N-]2)[N-]C1.C1CCC(C2CCCC[N-]2)[N-]C1.O=C(O)C(=O)O.[Ru+4] (stereo unspecified)
classification: inactive
--
compound: COc1cc(C(=O)CCCC(=O)O)cc(OC)c1OC
classification: inactive

QUERY: Assay result, entry CCn1c(O)c(C=Nc2ccccc2)s/c1=N/Nc1nc(C)c(C(C)=O)s1 — outcome?
RESULT: inactive

QUERY: Next record, please: CSc1ncnc2c1ccn2C1OC(COP(=O)(O)O)C(O)C1O (stereo unspecified)
RESULT: inactive

----------
assay: NCI Yeast Anticancer Drug Screen. Data for the mec2-1 strain (AID 157); settings: S. cerevisiae mec2-1 strain, at 50.0 µM
This is part of a sample that, as a whole, favours compounds with a hit. Of some 79,000 tested, about 15% had one in any assay. Calls of active or inactive are those of the source. Cut-off read from the data, not from the text of the source: active = growth inhibition above about 70%; inactive = the rest.
Valid outcomes are listed here; reply with one: active, inactive

Below, 4 compounds whose answers are already recorded.
compound: COC(=O)CCCC1(CCCC(=O)OC)CCCCCCCCC(CCCC(=O)OC)(CCCC(=O)OC)C(=O)C1=O
classification: inactive
--
compound: C(#CC[P+](c1ccccc1)(c1ccccc1)c1ccccc1)C[P+](c1ccccc1)(c1ccccc1)c1ccccc1
classification: inactive
--
compound: O=C1c2ccccc2-c2nc(/C=C/c3ccccc3)cc3c2c1nc1ccccc13
classification: inactive
--
compound: CC(C)C(CC1CCCCC1)C(C)O (centres undefined)
classification: inactive

QUERY: Assay result, entry COC(=O)C1(Cc2ccc3c(c2)CCC3)Cc2ccccc2C1=O (centres undefined) — outcome?
RESULT: inactive

QUERY: Next record, please: COC(=O)C1(C(C)C(=O)c2ccc(Cl)cc2)NC(=S)NC(=O)C1C#N (centres undefined)
RESULT: inactive

QUERY: Next record, please: CC(C)OC(=O)CO
RESULT: inactive

QUERY: Next record, please: O=C(CN1CCOCC1)NC(=O)c1ccccc1
RESULT: inactive

QUERY: Next record, please: CC(=O)/C=C(O)/C=C/c1ccccc1
RESULT: inactive

QUERY: Next record, please: N#Cc1ccc[n+]([O-])c1
RESULT: inactive

QUERY: Next record, please: Brc1ccc(CN(Cc2ccccc2)Cc2ccccc2)cc1
RESULT: inactive

QUERY: Next record, please: CCO[C@@H]1C2C=CC(C2)[C@H]1[N+](=O)[O-] (some centres undefined)
RESULT: inactive

QUERY: Next record, please: Cc1ccc2ccc(=O)oc2c1
RESULT: inactive

----------
assay: NCI Yeast Anticancer Drug Screen. Data for the cln2 rad14 strain (AID 165);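 also: 0% = growth equal to vehicle treated cultures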; settings: S. cerevisiae cln2 rad14 strain, at 50.0 µM, stronger effect = higher value
This is part of a sample that, as a whole, favours compounds with a hit. Of some 79,000 tested, about 15% had one in any assay.
observedProperty: growth inhibition (%)
// units = %; emit number, no label

Solved entries (count: 5):
molecule: CCOC(=O)C1=NN(c2ccccc2)C(=O)/C1=C\N1CC(=O)NC1=S
growth inhibition [%]: -10.2

molecule: CCO/C=C(\C(=O)OC)S(=O)(=O)c1ccc(C)cc1
growth inhibition [%]: 1.7

molecule: CNC(=O)Nc1ccc(OC)cc1OC
growth inhibition [%]: -66.5

molecule: CCOC(=O)C1S(=O)(=O)OCCOS1(=O)=O
growth inhibition [%]: 0.75

molecule: O=C(O)CCc1c[nH]c(=S)[nH]1
growth inhibition [%]: -11.6

QUERY: # query: growth inhibition of entry Nc1nnc2cc(Br)ccc2n1
RESULT: 14.2

QUERY: Next record, please: CCCC(C)(C#N)c1ccc(OC)cc1 (configuration not stated)
RESULT: 1.65

----------
experiment: NCI Yeast Anticancer Drug Screen. Data for the sgs1 mgt1 strain (AID 161);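 also: 0% = growth of cultures given vehicle only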; details: S. cerevisiae sgs1 mgt1 strain, at 50.0 µM, stronger effect = higher value
The panel holds about 79,000 compounds, 15% with a hit somewhere; the sample as a whole holds those more often.
observedProperty: growth inhibition (%)
// units = %; emit number, no label

Solved entries (count: 2):
compound: CC1CCC2(CC1)CC(=O)N(N1CCCCC1)C2=O (stereo not drawn)
observedProperty: growth inhibition
recordedNumber: 26.8
--
compound: CCN(CC)CCCC(C)NC1CCCc2cc3c(cc21)C(=O)c1ccccc1C3=O (stereo not drawn)
observedProperty: growth inhibition
recordedNumber: 38.1

QUERY: # query: growth inhibition of entry COc1ccccc1NC(=O)Nc1ccc(Nc2ccccc2)cc1
RESULT: 92.2

QUERY: Next record, please: CCCc1c(O)c2ccccc2[nH]c1=O
RESULT: -37.8

----------
Experiment: NCI Yeast Anticancer Drug Screen. Data for the rad50 strain (AID 155);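 also: 0% = growth of vehicle-only cultures of the same strain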
Details: S. cerevisiae rad50 strain growth inhibition; at 50.0 µM; stronger effect = higher value
Protocol: Growth inhibition of yeast strains with defined genetic alterations is measured as a screen for potential anti-cancer activity. Selected strains with alterations in DNA damage repair or cell cycle control were exposed to compounds and growth inhibition was measured relative to vehicle treated controls. The strain used in this assay is rad50
About 79,000 compounds went through this panel and 15% of them were active in at least one assay; those are over-represented in the sample as a whole.
observedProperty: growth inhibition (%)
// units = %; emit number, no label

Solved entries (count: 5):
compound: FC(F)(F)c1nc(=S)c2cn[nH]c2[nH]1
recordedNumber: 4.35
//
compound: CCCOC(=O)c1ccc(C(C)C)cc1
recordedNumber: 1.1
//
compound: OCC1(OC2OC(CF)C(O)C(O)C2O)OC(CF)C(O)C1O (stereo unspecified)
recordedNumber: -1.1
//
compound: O=C(Cn1cc[n+](CC(=O)c2ccccc2)c1)c1ccccc1
recordedNumber: -5.45
//
compound: C/C=C/c1nc2c(c(=O)n(C)c(=O)n2C)n1C
recordedNumber: -8.05

Okay, next one:
QUERY: # query: growth inhibition of entry COc1cccc(NC(=O)CC(=O)Nc2cccc(OC)c2)c1
RESULT: -5.05

----------
assay: NCI Yeast Anticancer Drug Screen. Data for the rad50 strain (AID 155);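 also: 0% = growth of vehicle-only cultures of the same strain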; conditions: S. cerevisiae rad50 strain growth inhibition; at 50.0 µM; stronger effect = higher value
The panel holds about 79,000 compounds, 15% with a hit somewhere; the sample as a whole holds those more often.
observedProperty: growth inhibition (%)
// units = %; emit number, no label

compound: O=C(CC1CCCCC1)OCC1CCCO1 (stereo not drawn)
unitsLabel: %
growth inhibition: -7.1

QUERY: # query: growth inhibition of entry O=C(Cn1ccc(=O)[nH]c1=O)Nc1ccc(C(=O)O)c(O)c1
RESULT: 0.45

QUERY: Next record, please: COc1cc2c(c(Cl)c1O)C(=O)OC2
RESULT: -4.25

QUERY: Next record, please: Cc1ccc(S(=O)(=O)OC(F)(F)C(F)(F)F)cc1
RESULT: 7.8

QUERY: Next record, please: O/N=C(\c1ccccc1)c1ccc2ncccc2c1
RESULT: 37

QUERY: Next record, please: C=CCc1ccc(OC(=O)Nc2ccc(S(=O)(=O)NC3CCCCC3)cc2)c(OC)c1
RESULT: 33.7

QUERY: Next record, please: CC1(C)SC2C(C(=O)O)N=C(Cc3ccccc3)N2C1C(=O)O (stereo not drawn)
RESULT: 3.2

QUERY: Next record, please: CC(=O)OC1(C#N)CC2OC1C1N=NN(C(=O)OC(C)(C)C)C21 (stereo not drawn)
RESULT: 18.2

QUERY: Next record, please: Cc1ccc(S(=O)(=O)O/C=C2/CCOC2=O)cc1
RESULT: 29.6

QUERY: Next record, please: CCCCCCCCCCOC1C(C(C)OCCCN(C)C)OC2OC3(CCCCC3)OC21 (stereo not drawn)
RESULT: 91.8

QUERY: Next record, please: O=C1C(=Cc2ccc([N+](=O)[O-])cc2)C(=O)c2ccccc21
RESULT: 28.9

QUERY: Next record, please: CC(C)C(=O)OCC1OC(n2cnc3c(=S)nc[nH]c32)C(OC(=O)C(C)C)C1OC(=O)C(C)C (stereo not drawn)
RESULT: -6.8

QUERY: Next record, please: OC1c2ccccc2CCCC1N1CCCCC1 (stereo not drawn)
RESULT: 41
